Threshold check on glass transition temperature: strictly below 50 °C is 1 (yes); on or above 50 °C is 0 (no).

Use the examples below as a reference point.
{"COMPOUND": "*CC(*)(C)C(=O)OC(COc1cc2ccccc2c2ccccc12)COc1cc2ccccc2c2ccccc12 (repeat unit)", "GROUP": "0 (no)"}
{"COMPOUND": "*CCC[Si](*)(C)c1ccc(N(C)C)cc1 (repeat unit)", "GROUP": "1 (yes)"}
{"COMPOUND": "*Oc1ccc(C(C)(C)c2ccc(Oc3ccc(C(=O)c4ccc(C(=O)c5ccc(*)cc5)cc4)cc3)cc2)cc1 (repeat unit)", "GROUP": "0 (no)"}
{"COMPOUND": "*CCOC(=O)Cc1ccc(C(=O)O*)cc1 (repeat unit)", "GROUP": "1 (yes)"}

Determine whether this compound shows glass transition temperature lower than 50 °C (ties excluded): *CC(*)(C)C(=O)OCCCCCCCCOc1ccc(C(=O)Oc2ccc(C(=O)/C=C/c3c(C)c4ccccc4n3C)cc2)cc1 (repeat unit)
0 (no)

Determine whether this compound shows glass transition temperature lower than 50 °C (ties excluded): *C(=O)CCCCCCCCC(=O)NC1CCCCN(*)C1 (repeat unit)
1 (yes)

glass transition temperature under 50 °C? Item: *C(=O)Nc1ccc(Oc2ccc(C3(c4ccc(Oc5ccc(NC(=O)c6ccc7c(c6)C(=O)N(c6ccc(Oc8ccc(Oc9ccc(N%10C(=O)c%11ccc(*)cc%11C%10=O)cc9)cc8)cc6)C7=O)cc5)cc4)NC(=O)c4ccccc43)cc2)cc1 (repeat unit)
0 (no)

Is 50 °C strictly greater than the compound's reported glass transition temperature? compound: *CC(*)C(=O)Oc1ccccc1C(=O)OC (repeat unit)
1 (yes)

###

READOUT_LABEL: glass transition temperature (°C)
Give bare numbers, in °C.

Below, 4 molecules whose answers are already recorded.
{"MOLECULE": "*Sc1ccc(P(=O)(c2ccccc2)c2ccc(Sc3ccc(-c4ccc(*)cc4)cc3)cc2)cc1 (repeat unit)", "OBSERVED_RESULT": 232.00}
{"MOLECULE": "*CCN(*)C(=O)Cc1ccc(C(F)(F)F)cc1 (repeat unit)", "OBSERVED_RESULT": 75.00}
{"MOLECULE": "*c1ccc(Oc2ccc(S(=O)(=O)c3ccc(Oc4ccc(-c5c6c(c(*)c7ccccc57)C(=O)N(c5ccc(Cl)cc5)C6=O)cc4)cc3)cc2)cc1 (repeat unit)", "OBSERVED_RESULT": 280.00}
{"MOLECULE": "*CC(*)C(=O)OCCOC (repeat unit)", "OBSERVED_RESULT": -34.00}

API: the following record is the query input.
Request the reported glass transition temperature associated with *c1ccc(Oc2ccc(-c3cc(-c4ccc(Oc5ccc(-c6cc(*)nc7ccccc67)cc5)cc4)c4ccccc4n3)cc2)cc1 (repeat unit)
300.00

###

READOUT_LABEL: glass transition temperature
Could you kindly put the unit after your number?

Solved cases (4 shown):
{"COMPOUND": "*c1ccc(N(c2ccc(C#N)cc2)c2ccc(-n3c(=O)c4cc5c(=O)n(*)c(=O)c5cc4c3=O)cc2)cc1 (repeat unit)", "OBSERVED_RESULT": "353.00 °C"}
{"COMPOUND": "*CC(*)(C)C(=O)OC1CCC(C(C)(C)C)CC1 (repeat unit)", "OBSERVED_RESULT": "100.00 °C"}
{"COMPOUND": "*CC(*)C(=O)Oc1ccc(C(=O)OC)cc1 (repeat unit)", "OBSERVED_RESULT": "67.00 °C"}
{"COMPOUND": "*O[Si](*)(C)CCCCOc1ccc(C(=O)Oc2ccc(C#N)cc2)cc1 (repeat unit)", "OBSERVED_RESULT": "16.00 °C"}

Parameters: items (list). Returns: glass transition temperature for each item.
1. *CCCCCCCOC(=O)Nc1ccc(C)c(NC(=O)O*)c1 (repeat unit)
2. *CCCCCCOP(=O)(/N=N/c1ccc(CCOC(=O)c2cc(C(=O)OCCc3ccc(/N=N/P(=O)(O*)OC)cc3)cc(C(C)(C)C)c2)cc1)OC (repeat unit)
3. *C(=O)Nc1ccc(Oc2ccc(C3(c4ccc(Oc5ccc(NC(=O)c6ccc7c(c6)C(=O)N(c6ccc(Oc8ccc(S(=O)(=O)c9ccc(Oc%10ccc(N%11C(=O)c%12ccc(*)cc%12C%11=O)cc%10)cc9)cc8)cc6)C7=O)cc5)cc4)NC(=O)c4ccccc43)cc2)cc1 (repeat unit)
4. *c1ccc(-c2ccc(-c3ccc(-c4ccc([Si](CCCC)(CCCC)[Si](*)(CCCC)CCCC)s4)s3)s2)s1 (repeat unit)

1: 61.00 °C; 2: 47.00 °C; 3: 283.00 °C; 4: -1.00 °C

Your task in this section: give glass transition temperature for each listed record.
1. *CC(*)(C)C(=O)OCCCOc1ccc(C(=O)Oc2ccc3ccc(=O)oc3c2)cc1 (repeat unit)
2. *c1ccc2c(c1)C(=O)N(c1c(C(C)C)cc(Cc3cc(C(C)C)c(N4C(=O)c5ccc(C(*)(C(F)(F)F)C(F)(F)F)cc5C4=O)c(C(C)C)c3)cc1C(C)C)C2=O (repeat unit)
3. *CC(*)(C)C(=O)Oc1ccc(C(=O)Oc2ccc(C)cc2)cc1 (repeat unit)
4. *c1ccc(Oc2ccc(S(=O)(=O)c3ccc(Oc4ccc(-c5nc(-c6ccccc6)[nH]c5*)cc4)cc3)cc2)cc1 (repeat unit)
5. *CCCCC(=O)NCc1ccc(CNC(=O)CCCCO*)cc1 (repeat unit)
6. *CC(=O)Nc1ccc(Oc2ccc(C(C)(C)c3ccc(Oc4ccc(NC(=O)CN5C(=O)c6ccc(C(c7ccc8c(c7)C(=O)N(*)C8=O)(C(F)(F)F)C(F)(F)F)cc6C5=O)cc4)cc3)cc2)cc1 (repeat unit)

68.00 °C
278.50 °C
98.00 °C
277.00 °C
70.00 °C
224.00 °C

###

READOUT_LABEL: glass transition temperature (°C)
One number for each entry, in °C.

// worked examples, glass transition temperature included
{"COMPOUND": "*OS(=O)(=O)c1cccc(S(=O)(=O)Oc2ccc(C(C)(CC)c3ccc(*)cc3)cc2)c1 (repeat unit)", "OBSERVED_RESULT": 147.00}
{"COMPOUND": "*Oc1cccc(NC(=O)c2cc(C(=O)Nc3ccc(*)cc3)cc(C(F)(F)C(F)(F)C(F)(F)C(F)(F)F)c2)c1 (repeat unit)", "OBSERVED_RESULT": 230.00}
{"COMPOUND": "*CCOC(=O)c1ccc2cc(C(=O)O*)ccc2c1 (repeat unit) [Poly(ethylene 2,6-naphthalate)]", "OBSERVED_RESULT": 121.42}
{"COMPOUND": "*O[Si](C)(CCC(F)(F)F)CCC(F)(F)C(F)(F)CC[Si](*)(C)CCC(F)(F)F (repeat unit)", "OBSERVED_RESULT": -27.00}
{"COMPOUND": "*/C(=C/c1cc(OC)c(/C=C(\\c2ccccc2)c2ccc(-c3ccc(*)cc3)cc2)cc1OC)c1ccccc1 (repeat unit)", "OBSERVED_RESULT": 223.00}

Quick batch: glass transition temperature for everything below.
1. *CCC1C(=O)N(CCCCCCCCCCCCCCCC)C(=O)C1* (repeat unit)
2. *c1ccc2c(c1)C(=O)N(c1ccc(C(=O)Nc3ccc(C(c4ccc(NC(=O)c5ccc(N6C(=O)c7ccc(C(*)(C(F)(F)F)C(F)(F)F)cc7C6=O)c(C)c5)cc4)(C(F)(F)F)C(F)(F)F)cc3)cc1C)C2=O (repeat unit)

1. 65.60
2. 344.00

###

Binary label based on glass transition temperature with cut-off 60 °C: below gives Satisfied, not below gives Not satisfied.

Worked set:
{"COMPOUND": "*CCOCCOC(=O)c1ccccc1C(=O)O* (repeat unit)", "GROUP": "Satisfied"}
{"COMPOUND": "*c1cccc(N2C(=O)c3ccc(Oc4ccc5c(c4)C4(CC(C)(C)c6ccc(Oc7ccc8c(c7)C(=O)N(*)C8=O)cc64)CC5(C)C)cc3C2=O)c1 (repeat unit)", "GROUP": "Not satisfied"}
{"COMPOUND": "*O[Si](*)(C)CCCOc1ccc(C(=O)Oc2ccc(C(=O)Oc3ccc(OC)cc3)cc2)cc1 (repeat unit)", "GROUP": "Satisfied"}
{"COMPOUND": "*c1ccc(Oc2ccc(N3C(=O)c4ccc(C(=O)c5ccc6c(c5)C(=O)N(c5ncc(*)s5)C6=O)cc4C3=O)cc2)cc1 (repeat unit)", "GROUP": "Not satisfied"}
{"COMPOUND": "*Oc1cc(Cl)c(C(C)(C)c2c(Cl)cc(OC(*)=O)cc2Cl)c(Cl)c1 (repeat unit)", "GROUP": "Not satisfied"}

Dear colleague, could you confirm whether glass transition temperature of *CC(=O)NCCCCCCNC(=O)COC(=O)CCCCCCCCC(=O)O* (repeat unit) falls below 60 °C? Thanks.
Satisfied

Criterion: glass transition temperature strictly below 60 °C. Is it met by *CCCCCCCCCNC(=O)CCCCC(=O)N* (repeat unit) ?
Not satisfied

A record lists *O[Si](c1ccccc1)(c1ccccc1)c1cccc(*)c1 (repeat unit) . Is its glass transition temperature below 60 °C?
Not satisfied
